assayed.system: NSD2 (Homo sapiens, UniProt O96028, T1150A)
Construct: full length (residues 2-1365), N-terminal His tag, insect cell/baculovirus
protocol.description: HotSpot [3H]SAM filter-binding methyltransferase assay
Type: biochemical
test.readout: pIC50
Reminder that pIC50 is minus the log10 of a molar concentration.

Q) Give NSD2 (Homo sapiens, UniProt O96028, T1150A) pIC50 for `CC1(C)CCC(CN2CCN(c3ccc(C(=O)NS(=O)(=O)c4ccc(NCC5CCOCC5)c([N+](=O)[O-])c4)c(Oc4cnc5[nH]ccc5c4)c3)CC2)=C(c2ccc(Cl)cc2)C1`
A) 5.64

###

assayed.system: EZH2 Complex (Homo sapiens)
Construct: five-member complex, Flag-EED, other subunits His-tagged, insect cells; with Zinc finger protein AEBP2; Polycomb protein EED; Polycomb protein SUZ12
Sequence (Q15910 2-746): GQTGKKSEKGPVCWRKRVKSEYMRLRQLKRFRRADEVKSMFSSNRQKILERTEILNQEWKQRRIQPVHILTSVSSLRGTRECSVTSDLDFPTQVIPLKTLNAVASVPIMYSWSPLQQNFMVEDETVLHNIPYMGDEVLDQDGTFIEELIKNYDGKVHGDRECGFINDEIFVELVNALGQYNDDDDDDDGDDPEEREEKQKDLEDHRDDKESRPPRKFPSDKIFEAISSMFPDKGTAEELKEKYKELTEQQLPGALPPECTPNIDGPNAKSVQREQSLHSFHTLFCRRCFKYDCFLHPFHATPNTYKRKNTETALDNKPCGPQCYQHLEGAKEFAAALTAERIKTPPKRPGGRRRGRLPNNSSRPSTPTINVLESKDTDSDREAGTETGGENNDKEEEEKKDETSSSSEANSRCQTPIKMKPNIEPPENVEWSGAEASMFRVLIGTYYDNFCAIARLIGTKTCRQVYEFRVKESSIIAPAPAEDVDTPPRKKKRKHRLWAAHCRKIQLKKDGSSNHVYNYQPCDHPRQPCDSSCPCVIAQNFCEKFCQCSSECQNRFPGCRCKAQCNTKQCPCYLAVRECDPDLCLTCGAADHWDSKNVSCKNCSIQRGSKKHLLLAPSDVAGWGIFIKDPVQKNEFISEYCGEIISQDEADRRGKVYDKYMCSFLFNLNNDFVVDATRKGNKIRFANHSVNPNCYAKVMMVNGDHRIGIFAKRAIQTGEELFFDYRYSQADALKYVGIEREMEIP
Sequence (O75530 2-441 partner): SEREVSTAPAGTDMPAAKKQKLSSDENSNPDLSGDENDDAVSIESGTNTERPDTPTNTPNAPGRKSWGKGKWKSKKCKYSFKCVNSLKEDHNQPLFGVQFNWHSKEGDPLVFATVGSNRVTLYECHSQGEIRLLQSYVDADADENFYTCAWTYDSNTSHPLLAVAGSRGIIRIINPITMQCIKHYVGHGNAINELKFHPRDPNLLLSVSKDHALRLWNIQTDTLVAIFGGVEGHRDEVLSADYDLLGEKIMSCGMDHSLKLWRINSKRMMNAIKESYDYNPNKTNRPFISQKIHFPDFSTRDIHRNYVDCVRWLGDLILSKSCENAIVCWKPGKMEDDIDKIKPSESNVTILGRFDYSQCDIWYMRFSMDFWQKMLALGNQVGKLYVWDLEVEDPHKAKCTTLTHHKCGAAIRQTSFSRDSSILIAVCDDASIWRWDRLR
Sequence (Q15022 2-739 partner): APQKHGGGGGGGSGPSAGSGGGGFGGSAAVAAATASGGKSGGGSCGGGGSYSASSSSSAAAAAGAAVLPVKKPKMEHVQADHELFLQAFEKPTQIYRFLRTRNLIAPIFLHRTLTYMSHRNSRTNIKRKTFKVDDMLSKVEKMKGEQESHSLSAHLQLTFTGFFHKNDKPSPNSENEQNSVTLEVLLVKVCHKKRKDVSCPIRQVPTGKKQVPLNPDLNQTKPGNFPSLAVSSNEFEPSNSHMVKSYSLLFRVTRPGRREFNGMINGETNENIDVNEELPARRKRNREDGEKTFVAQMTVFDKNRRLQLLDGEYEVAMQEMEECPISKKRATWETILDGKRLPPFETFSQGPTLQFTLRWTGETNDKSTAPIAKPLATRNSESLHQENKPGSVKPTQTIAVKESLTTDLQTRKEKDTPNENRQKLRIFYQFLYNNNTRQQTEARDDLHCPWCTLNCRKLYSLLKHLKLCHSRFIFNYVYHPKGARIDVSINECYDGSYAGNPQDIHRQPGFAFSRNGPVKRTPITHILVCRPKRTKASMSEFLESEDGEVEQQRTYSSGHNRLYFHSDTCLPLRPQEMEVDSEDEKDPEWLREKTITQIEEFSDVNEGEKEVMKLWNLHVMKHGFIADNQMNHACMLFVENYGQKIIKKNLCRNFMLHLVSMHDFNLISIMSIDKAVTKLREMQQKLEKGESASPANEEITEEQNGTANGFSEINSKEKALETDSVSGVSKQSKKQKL
Sequence (Q09028 2-425 partner): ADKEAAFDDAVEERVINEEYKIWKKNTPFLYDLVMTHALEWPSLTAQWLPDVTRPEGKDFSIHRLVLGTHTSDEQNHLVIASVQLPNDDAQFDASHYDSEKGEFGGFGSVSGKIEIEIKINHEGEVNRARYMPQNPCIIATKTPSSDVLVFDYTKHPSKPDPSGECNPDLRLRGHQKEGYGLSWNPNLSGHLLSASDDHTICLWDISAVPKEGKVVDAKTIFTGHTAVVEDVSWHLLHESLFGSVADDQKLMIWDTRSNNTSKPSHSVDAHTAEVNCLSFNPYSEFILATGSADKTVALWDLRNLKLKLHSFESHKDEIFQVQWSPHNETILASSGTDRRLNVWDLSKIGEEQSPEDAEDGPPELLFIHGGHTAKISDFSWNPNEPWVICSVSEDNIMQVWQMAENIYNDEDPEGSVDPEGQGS
Sequence (Q6ZN18 2-517 partner): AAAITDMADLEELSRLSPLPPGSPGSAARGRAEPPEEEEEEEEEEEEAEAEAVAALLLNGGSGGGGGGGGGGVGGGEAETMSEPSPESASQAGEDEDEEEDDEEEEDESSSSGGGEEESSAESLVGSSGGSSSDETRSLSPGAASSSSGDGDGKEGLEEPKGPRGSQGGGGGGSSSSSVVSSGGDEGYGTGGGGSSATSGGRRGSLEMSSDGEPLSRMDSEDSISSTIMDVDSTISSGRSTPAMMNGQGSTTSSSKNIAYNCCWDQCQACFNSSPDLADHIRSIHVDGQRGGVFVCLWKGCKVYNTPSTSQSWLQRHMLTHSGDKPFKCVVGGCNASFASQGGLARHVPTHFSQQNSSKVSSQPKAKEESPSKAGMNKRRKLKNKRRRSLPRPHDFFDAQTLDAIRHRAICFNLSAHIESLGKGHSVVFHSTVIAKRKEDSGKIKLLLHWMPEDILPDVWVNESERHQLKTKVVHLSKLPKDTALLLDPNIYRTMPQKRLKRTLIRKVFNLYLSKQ
protocol.description: HotSpot [3H]SAM filter-binding methyltransferase assay
Format: biochemical
measurement.context: core histone, […] SAM, pH […] EDTA, […] DTT, […] °C, single experiment
test.readout: pIC50
// scale note: pIC50 = -log10(conc_M); give the bare number

Q) Requested read-out: pIC50. Entry: `COc1cccc(-n2nc(C(=O)O)cc2-c2ccc(C3CCCCC3)c(Cl)c2)c1`
A) 4.40

###

assayed.system: PRMT6 (Homo sapiens, UniProt Q96LA8)
Sequence (Q96LA8 whole entry): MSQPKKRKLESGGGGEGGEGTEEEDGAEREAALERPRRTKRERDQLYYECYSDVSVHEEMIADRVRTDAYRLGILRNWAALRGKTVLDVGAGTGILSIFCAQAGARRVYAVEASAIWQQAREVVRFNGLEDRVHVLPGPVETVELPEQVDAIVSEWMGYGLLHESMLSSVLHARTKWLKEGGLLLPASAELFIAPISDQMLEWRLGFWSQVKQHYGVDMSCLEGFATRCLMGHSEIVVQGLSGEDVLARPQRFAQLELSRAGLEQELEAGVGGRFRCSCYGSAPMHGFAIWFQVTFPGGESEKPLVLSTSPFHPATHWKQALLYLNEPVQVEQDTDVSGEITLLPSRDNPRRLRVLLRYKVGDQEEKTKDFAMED
test.readout: pIC50
Remember the convention: pIC50 equals -log10 of concentration in molar.

Q) Item `O=C1C(Cl)=C(NCCN2CCOCC2)C(=O)c2ncccc21` has what recorded pIC50?
A) 6.00

###

assayed.system: MLL4 Complex (Homo sapiens)
protocol.description: HotSpot [3H]SAM filter-binding methyltransferase assay
Format: biochemical
Parameters: gene KMT2B; complex assembled as MLL1; MLL4 here is KMT2B (NM_014727), His tag, E. coli; with WD repeat-containing protein 5; Set1/Ash2 histone methyltransferase complex subunit ASH2; Protein dpy-30 homolog
test.readout: pIC50
Kindly note that pIC50 refers to -log10 of the concentration in mol/L and answer with the value alone.

Q) Any idea what pIC50 was measured for CC1(C)CCC(CN2CCN(c3ccc(C(=O)NS(=O)(=O)c4ccc(NCC5CCOCC5)c([N+](=O)[O-])c4)c(Oc4cnc5[nH]ccc5c4)c3)CC2)=C(c2ccc(Cl)cc2)C1 [ABT-199] ?
A) 6.28

###

assayed.system: NSD2 SET domain (Homo sapiens, UniProt O96028)
Construct: SET domain, residues 934-1241, N-terminal His tag, E. coli
protocol.description: SPR Biacore 8K, single-cycle kinetics, […] model
Format: binding
measurement.context: immobilized SET domain, pH […] °C, […] MgCl2, […] TCEP, […] DMSO
test.readout: Kd
# do not omit the unit; it follows the number

Q) Would you mind telling me what Kd value was observed for COc1cccc(-n2nc(C(=O)O)cc2-c2ccc(C3CCCCC3)c(Cl)c2)c1 [TC LPA5 4] ?
A) 8.4 µM

###

assayed.system: NSD2 SET domain (Homo sapiens, UniProt O96028)
Construct: SET domain, residues 934-1241, N-terminal His tag, E. coli
Sequence (O96028 934-1241): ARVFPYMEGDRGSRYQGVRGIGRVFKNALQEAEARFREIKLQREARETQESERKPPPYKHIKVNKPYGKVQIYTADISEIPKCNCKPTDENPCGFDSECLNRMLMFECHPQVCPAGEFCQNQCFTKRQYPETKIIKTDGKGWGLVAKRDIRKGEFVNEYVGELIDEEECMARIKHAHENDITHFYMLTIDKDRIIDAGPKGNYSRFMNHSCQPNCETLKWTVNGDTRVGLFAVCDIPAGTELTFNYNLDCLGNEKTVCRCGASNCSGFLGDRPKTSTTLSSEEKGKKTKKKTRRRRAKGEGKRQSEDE
protocol.description: biochemical
Parameters: Surface plasmon resonance binding to NSD2 SET domain
measurement.context: binder
test.readout: pKd
Convention used: pKd is expressed as -log10 of the molar concentration.

Q) Reported pKd for NSD2 SET domain (Homo sapiens, UniProt O96028), given `O=C1C(Cl)=C(NCCN2CCOCC2)C(=O)c2ncccc21` ?
A) 6.43

###

Target chain: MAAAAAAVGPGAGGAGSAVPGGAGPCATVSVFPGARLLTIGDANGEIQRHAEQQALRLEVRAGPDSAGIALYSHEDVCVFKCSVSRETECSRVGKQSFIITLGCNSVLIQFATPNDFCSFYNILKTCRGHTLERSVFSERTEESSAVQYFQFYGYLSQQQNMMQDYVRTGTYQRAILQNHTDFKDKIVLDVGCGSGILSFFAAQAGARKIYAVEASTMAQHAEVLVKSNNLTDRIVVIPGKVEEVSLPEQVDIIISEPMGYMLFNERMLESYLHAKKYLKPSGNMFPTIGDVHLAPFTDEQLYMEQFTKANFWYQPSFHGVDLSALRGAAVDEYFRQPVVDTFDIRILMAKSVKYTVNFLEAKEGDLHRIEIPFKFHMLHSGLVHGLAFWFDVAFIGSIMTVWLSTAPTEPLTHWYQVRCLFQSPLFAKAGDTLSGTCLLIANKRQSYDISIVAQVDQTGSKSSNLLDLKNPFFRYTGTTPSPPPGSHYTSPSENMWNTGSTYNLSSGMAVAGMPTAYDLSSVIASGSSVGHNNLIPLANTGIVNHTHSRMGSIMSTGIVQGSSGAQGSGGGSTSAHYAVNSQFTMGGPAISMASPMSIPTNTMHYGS
test.readout: IC50 (µM)
# output: bare number, implied unit µM

Q) # lookup: IC50 of O=C1C(Cl)=C(NCCN2CCOCC2)C(=O)c2ncccc21 [DA3003-1]
A) 1.4

###

assayed.system: DNMT3a (Homo sapiens, UniProt Q9Y6K1)
Sequence (Q9Y6K1 whole entry, looked up): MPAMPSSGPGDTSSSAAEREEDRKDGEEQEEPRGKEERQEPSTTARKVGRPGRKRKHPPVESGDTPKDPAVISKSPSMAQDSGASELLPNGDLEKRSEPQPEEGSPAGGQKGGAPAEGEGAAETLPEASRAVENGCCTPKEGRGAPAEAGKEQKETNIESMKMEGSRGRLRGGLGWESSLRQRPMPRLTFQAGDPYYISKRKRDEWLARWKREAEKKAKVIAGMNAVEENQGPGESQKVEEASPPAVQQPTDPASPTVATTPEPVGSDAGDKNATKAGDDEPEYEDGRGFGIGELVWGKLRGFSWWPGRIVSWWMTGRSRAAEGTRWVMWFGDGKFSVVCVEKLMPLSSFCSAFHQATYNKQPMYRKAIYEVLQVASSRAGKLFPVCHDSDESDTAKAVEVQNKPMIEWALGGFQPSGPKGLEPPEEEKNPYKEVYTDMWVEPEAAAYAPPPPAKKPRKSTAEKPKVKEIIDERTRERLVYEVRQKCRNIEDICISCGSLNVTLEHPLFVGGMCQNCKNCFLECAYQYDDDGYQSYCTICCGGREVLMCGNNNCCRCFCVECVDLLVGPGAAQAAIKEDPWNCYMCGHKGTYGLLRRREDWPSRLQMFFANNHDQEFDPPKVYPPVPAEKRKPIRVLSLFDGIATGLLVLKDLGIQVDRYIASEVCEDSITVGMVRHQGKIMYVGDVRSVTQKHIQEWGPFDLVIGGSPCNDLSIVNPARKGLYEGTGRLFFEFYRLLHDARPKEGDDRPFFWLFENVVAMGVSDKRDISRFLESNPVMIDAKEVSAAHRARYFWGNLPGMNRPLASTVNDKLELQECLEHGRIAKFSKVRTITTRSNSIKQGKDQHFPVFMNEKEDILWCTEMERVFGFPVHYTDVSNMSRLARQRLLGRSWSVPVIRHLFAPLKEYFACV
protocol.description: biochemical
test.readout: pIC50
Please express pIC50 as -log10 of the molar concentration.

{"columns": ["compound", "pIC50"],
 "data": [
  ["COc1cccc(-n2nc(C(=O)O)cc2-c2ccc(C3CCCCC3)c(Cl)c2)c1 [TC LPA5 4]", 4.80]
]}

Now for a further compound.
Q) Param item = CC1(C)CCC(CN2CCN(c3ccc(C(=O)NS(=O)(=O)c4ccc(NCC5CCOCC5)c([N+](=O)[O-])c4)c(Oc4cnc5[nH]ccc5c4)c3)CC2)=C(c2ccc(Cl)cc2)C1 [ABT-199] ; retrieve measured pIC50.
A) 4.74

###

assayed.system: NSD2 SET domain (Homo sapiens, UniProt O96028)
Construct: SET domain, residues 934-1241, N-terminal His tag, E. coli
protocol.description: biochemical
Parameters: Surface plasmon resonance binding to NSD2 SET domain
measurement.context: apparent, super-stoichiometric binding
test.readout: Kd

Q) For NSD2 SET domain (Homo sapiens, UniProt O96028), provide Kd of `CN1C(=O)[C@@]23C[C@]4([C@]56C[C@@]78SS[C@@](CO)(C(=O)N7[C@H]5Nc5ccccc56)N(C)C8=O)c5ccccc5N[C@@H]4N2C(=O)[C@]1(CO)SS3` please.
A) 0.02 µM

###

assayed.system: SET8 (Homo sapiens, UniProt Q9NQR1)
Construct: gene KMT5A
Sequence (Q9NQR1 1-393): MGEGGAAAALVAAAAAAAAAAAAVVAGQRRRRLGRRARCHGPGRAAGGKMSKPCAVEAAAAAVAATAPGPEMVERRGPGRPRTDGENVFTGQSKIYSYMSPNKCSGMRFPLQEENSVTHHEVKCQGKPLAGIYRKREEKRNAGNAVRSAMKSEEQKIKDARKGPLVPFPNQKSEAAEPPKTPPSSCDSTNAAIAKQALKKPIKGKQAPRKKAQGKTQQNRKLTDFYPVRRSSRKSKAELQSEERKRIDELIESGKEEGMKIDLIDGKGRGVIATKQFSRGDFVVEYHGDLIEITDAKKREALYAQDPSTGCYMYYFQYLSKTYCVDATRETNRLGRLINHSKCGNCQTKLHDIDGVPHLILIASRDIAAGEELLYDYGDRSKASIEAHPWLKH
protocol.description: biochemical
measurement.context: read-out: DA3003-1 IC50; inhibitor
test.readout: IC50 (µM)
Give a bare numeral; the unit µM is implied.

Q) Name the recorded IC50 for O=C1C(Cl)=C(NCCN2CCOCC2)C(=O)c2ncccc21 [DA3003-1] .
A) 4.4

###

assayed.system: DNMT3a (Homo sapiens, UniProt Q9Y6K1)
protocol.description: biochemical
test.readout: IC50 (nM)
The answer is to be given in nM; state only the numeric part.

Q) Report IC50 for Nc1ncnc2c1ncn2[C@@H]1O[C@H](CSCC[C@H](N)C(=O)O)[C@@H](O)[C@H]1O [SAH] please.
A) 120

###

assayed.system: GLP (Homo sapiens, UniProt Q9H9B1)
Construct: gene EHMT1
Sequence (Q9H9B1 1-1298): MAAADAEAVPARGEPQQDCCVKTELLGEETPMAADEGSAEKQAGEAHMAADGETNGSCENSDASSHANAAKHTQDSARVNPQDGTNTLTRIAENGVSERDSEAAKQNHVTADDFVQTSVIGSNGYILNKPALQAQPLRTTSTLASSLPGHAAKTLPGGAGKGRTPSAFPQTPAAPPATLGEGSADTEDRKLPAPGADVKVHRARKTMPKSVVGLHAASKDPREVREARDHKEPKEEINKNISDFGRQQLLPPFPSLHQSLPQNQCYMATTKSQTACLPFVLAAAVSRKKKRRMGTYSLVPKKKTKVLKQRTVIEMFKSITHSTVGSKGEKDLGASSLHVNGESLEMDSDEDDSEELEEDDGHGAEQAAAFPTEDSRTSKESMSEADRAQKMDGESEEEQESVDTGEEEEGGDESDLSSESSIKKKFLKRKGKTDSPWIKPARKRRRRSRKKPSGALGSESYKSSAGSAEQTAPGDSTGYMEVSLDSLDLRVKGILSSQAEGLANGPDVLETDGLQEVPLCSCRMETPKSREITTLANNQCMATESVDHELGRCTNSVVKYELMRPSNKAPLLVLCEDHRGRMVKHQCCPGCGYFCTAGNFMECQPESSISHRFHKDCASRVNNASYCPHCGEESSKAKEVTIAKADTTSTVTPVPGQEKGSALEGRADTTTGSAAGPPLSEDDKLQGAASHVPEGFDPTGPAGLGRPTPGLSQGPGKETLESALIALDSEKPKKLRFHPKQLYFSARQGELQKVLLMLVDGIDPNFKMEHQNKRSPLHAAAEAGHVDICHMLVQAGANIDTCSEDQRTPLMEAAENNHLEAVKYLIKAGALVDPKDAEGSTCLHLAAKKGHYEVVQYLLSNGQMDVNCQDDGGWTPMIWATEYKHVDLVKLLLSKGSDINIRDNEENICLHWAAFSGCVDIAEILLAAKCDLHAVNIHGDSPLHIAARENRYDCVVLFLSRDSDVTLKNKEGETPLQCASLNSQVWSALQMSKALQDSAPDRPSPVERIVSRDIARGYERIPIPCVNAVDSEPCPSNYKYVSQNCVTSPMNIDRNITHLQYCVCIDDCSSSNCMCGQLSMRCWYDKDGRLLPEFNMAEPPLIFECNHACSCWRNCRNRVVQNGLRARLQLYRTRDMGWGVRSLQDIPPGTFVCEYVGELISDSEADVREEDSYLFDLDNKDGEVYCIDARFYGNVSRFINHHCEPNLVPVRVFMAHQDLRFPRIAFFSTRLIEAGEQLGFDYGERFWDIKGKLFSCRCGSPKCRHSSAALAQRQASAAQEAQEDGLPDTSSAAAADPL
protocol.description: biochemical
test.readout: IC50
Note: a bare number is incomplete; add the unit.

Q) Need IC50, item Nc1ncnc2c1ncn2[C@@H]1O[C@H](CSCC[C@H](N)C(=O)O)[C@@H](O)[C@H]1O [SAH]
A) 530 nM

Source listed as paper doi:10.1101/208439v1.
